Target: Ghrelin receptor (Homo sapiens, UniProt Q92847)
Sequence (Q92847 whole entry): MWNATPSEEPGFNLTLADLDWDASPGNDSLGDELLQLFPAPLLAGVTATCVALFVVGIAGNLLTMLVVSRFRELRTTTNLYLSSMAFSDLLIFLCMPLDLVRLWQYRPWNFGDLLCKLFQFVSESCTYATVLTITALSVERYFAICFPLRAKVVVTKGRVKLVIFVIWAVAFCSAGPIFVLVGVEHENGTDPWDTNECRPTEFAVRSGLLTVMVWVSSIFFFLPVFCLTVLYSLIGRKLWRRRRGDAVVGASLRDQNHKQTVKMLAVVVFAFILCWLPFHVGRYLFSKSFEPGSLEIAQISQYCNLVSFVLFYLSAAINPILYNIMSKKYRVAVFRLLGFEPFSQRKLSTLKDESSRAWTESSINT
Assay: Receptor Selection and Amplification Technology (R-SAT) assay
Format: cell-based
Design: expressed in transfected cells; host or cells: NIH3T3
Conditions: percent inhibition at saturating ligand, normalized to reference ligand Substance P analog = 100%; read-out: RSAT Eff(%)
Kindly supply the reported Emax values for the records listed here.
# unit: % | format: bare number

Data point: `COc1ccc2[nH]c3c(c2c1)CCN(CCCn1cc(C(C)=O)c2ccc(OC)cc21)C3` ; Emax = 69

Data point: `COc1ccc2c(c1)c(C(C)=O)cn2CCCN1CCC(Oc2ccc(Cl)cc2)CC1` ; Emax = 104

Data point: `CCC(=O)c1cn(CCCN2CCC(Cc3ccccc3)CC2)c2ccccc12` ; Emax = 109

Data point: `COc1cccc2c(C#N)cn(CCCN3CCN(CCOc4ccc(Cl)cc4)CC3)c12` ; Emax = -23

Data point: CC(=O)c1cn(CCCN2CCCC(Oc3ccc(Cl)cc3)C2)c2c(Br)cccc12 (centres unmarked) ; Emax = 46

----------
Target: Ghrelin receptor (Homo sapiens, UniProt Q92847)
Assay: Receptor Selection and Amplification Technology (R-SAT) assay
Assay type: cell-based
Design: expressed in transfected cells; host or cells: NIH3T3
Conditions: percent inhibition at saturating ligand, normalized to reference ligand Substance P analog = 100%; read-out: RSAT Eff(%)
endpoint.name: Emax (%)
# unit: % | format: bare number

Data point: `CC(=O)c1cn(CCCN2CCC(Oc3ccccc3Cl)CC2)c2c(C)cccc12` ; Emax = 110

Data point: `CC(=O)c1cn(CCCN2CCN(c3ncc(C(F)(F)F)cc3Cl)CC2)c2c(C#N)cccc12` ; Emax = 106

Data point: `COc1cccc2c(C(C)=O)cn(CCCN3CCN(c4cccc(Cl)c4Cl)CC3)c12` ; Emax = 103

Data point: `CC(=O)CCc1cn(CCCN2CCC(c3nc4ccccc4s3)CC2)c2ccccc12` ; Emax = 84

Data point: `CC(=O)c1cn(CCCN2CCC(Oc3ccccc3Cl)CC2)c2c(Cl)cccc12` ; Emax = 97

----------
Target: UniProtKB Q92847
Assay: Receptor Selection and Amplification Technology (R-SAT) assay
Type: cell-based
Design: expressed in transfected cells; host or cells: NIH3T3
Settings: percent inhibition at saturating ligand, normalized to reference ligand Substance P analog = 100%; read-out: RSAT Eff(%)
Kindly supply the reported Emax values for the records listed here.
# unit: % | format: bare number

Log: UniProtKB Q92847, molecule `CCCCC1CCN(CCCn2cc(C(C)=O)c3cccc(C)c32)CC1` , Emax = 78

Log: UniProtKB Q92847, molecule CCC(=O)c1cn(CCCN2C3CCC2CC(OCC2CC2)C3)c2ccccc12 (stereo not shown) , Emax = 120

Log: UniProtKB Q92847, molecule CC(=O)c1cn(CCCN2C3CCC2CC(CCc2ccccc2)C3)c2c(C)cccc12 (stereo not shown) , Emax = 105

Log: UniProtKB Q92847, molecule `O=C(c1cn(CCCN2CCC(c3nc(-c4cccnc4)no3)CC2)c2ncccc12)C(F)(F)F` , Emax = 72

Log: UniProtKB Q92847, molecule `CCCOC1CCN(CCCn2cc(CCC(C)=O)c3ccccc32)CC1` , Emax = 75

Log: UniProtKB Q92847, molecule `CCC(=O)c1cn(CCCN2CCC(C(=O)c3ccccc3)CC2)c2ccccc12` , Emax = 53

Log: UniProtKB Q92847, molecule `CC(=O)c1cn(CCCN2CCN(CCOc3ccccc3)CC2)c2ncccc12` , Emax = 81

Log: UniProtKB Q92847, molecule `CCCOC1CCN(CCCn2cc(C(C)=O)c3ccc(OC)cc32)CC1` , Emax = 61

Log: UniProtKB Q92847, molecule `CC(=O)c1cn(CCCN2CCC(Oc3ccc(Cl)cc3)CC2)c2c(C)cccc12` , Emax = 101

Log: UniProtKB Q92847, molecule O=C(c1cn(CCCN2C3CCC2CC(OCC2CC2)C3)c2ccccc12)C(F)(F)F (stereo not shown) , Emax = 103
